The origin of these recorded values is PubChem BioAssay AID1963830.

# Tested on: 922993-354-T-J3-PDC complex spheroid viability;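 further: spheroids exposed to the agents for one week; 100% = DMSO vehicle control wells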
# protocol.notes: Anticancer human tumor 922993-354-T-J3-PDC patient-derived endometrial carcinoma cell line growth inhibition [POLQ]
# recorded.conditions: second compound 3.16 µM; first compound 0.1 µM; active compounds read low
Provide the reported viability, T/C of each item.
Report the figure in % without appending any unit label.

Q: Record lookup: for 922993-354-T-J3-PDC complex spheroid viability, what viability, T/C belongs to O=C(Nc1ccc(O)c(NS(=O)(=O)c2ccc(F)cc2)c1)c1ccc(-c2ccccc2)cc1 + Nc1ccc(C#CCN(C(=O)Cc2ncc(C(F)(F)F)cc2C(F)(F)F)c2ccc(F)cc2)nn1 ?
A: 97.7

Q: State its viability, T/C on 922993-354-T-J3-PDC complex spheroid viability: C=CCn1c(=O)c2cnc(Nc3ccc(N4CCN(C)CC4)cc3)nc2n1-c1cccc(C(C)(C)O)n1 + Cc1cccc(N(C)C(=O)C2C(O)CCN2c2nc(C)cc(C(F)(F)F)c2C#N)c1
A: 101

Q: Notebook: pull reported viability, T/C for 922993-354-T-J3-PDC complex spheroid viability, entry CNCc1ccc(-c2[nH]c3cc(F)cc4c3c2CCNC4=O)cc1 + Nc1ccc(C#CCN(C(=O)Cc2ncc(C(F)(F)F)cc2C(F)(F)F)c2ccc(F)cc2)nn1
A: 100

Q: Query the reported viability, T/C for 922993-354-T-J3-PDC complex spheroid viability; item: COc1cc(C2c3cc4c(cc3C(OC3OC5COC(C)OC5C(O)C3O)C3COC(=O)C23)OCO4)cc(OC)c1O (stereo not given) + Nc1ccc(C#CCN(C(=O)Cc2ncc(C(F)(F)F)cc2C(F)(F)F)c2ccc(F)cc2)nn1
A: 97.2

Q: Recorded viability, T/C for Cn1ncnc1[C@H]1c2n[nH]c(=O)c3cc(F)cc(c23)N[C@@H]1c1ccc(F)cc1 + Cc1cccc(N(C)C(=O)C2C(O)CCN2c2nc(C)cc(C(F)(F)F)c2C#N)c1 with 922993-354-T-J3-PDC complex spheroid viability, please?
A: 41.6

Q: Under 922993-354-T-J3-PDC complex spheroid viability: viability, T/C value of C=CC(=O)N1CCN(c2nc(=O)n(-c3c(C)ccnc3C(C)C)c3nc(-c4c(O)cccc4F)c(F)cc23)C(C)C1 (stereo not given) + COC1C(OC(N)=O)C(O)C(Oc2ccc3c(O)c(NC(=O)c4ccc(O)c(CC=C(C)C)c4)c(=O)oc3c2C)OC1(C)C ?
A: 94.2

Q: Reported viability, T/C for 922993-354-T-J3-PDC complex spheroid viability, given O=C(c1cc(Cc2n[nH]c(=O)c3ccccc23)ccc1F)N1CCN(C(=O)C2CC2)CC1 + COC1C(OC(N)=O)C(O)C(Oc2ccc3c(O)c(NC(=O)c4ccc(O)c(CC=C(C)C)c4)c(=O)oc3c2C)OC1(C)C ?
A: 95.7

Q: Query for 922993-354-T-J3-PDC complex spheroid viability: what viability, T/C does the record show for COc1cccc(OCCCN)c1-c1cc(Nc2cnc(C#N)cn2)n[nH]1 + Cc1cccc(N(C)C(=O)C2C(O)CCN2c2nc(C)cc(C(F)(F)F)c2C#N)c1 ?
A: 99.5

Q: Item COc1cccc2c1C(=O)c1c(O)c3c(c(O)c1C2=O)CC(O)(C(=O)CO)CC3OC1CC(N)C(O)C(C)O1 (stereo not given) + Cc1cccc(N(C)C(=O)C2C(O)CCN2c2nc(C)cc(C(F)(F)F)c2C#N)c1 with 922993-354-T-J3-PDC complex spheroid viability - viability, T/C?
A: 93.3

Q: Short answer please: viability, T/C, 922993-354-T-J3-PDC complex spheroid viability, entry CNCc1ccc(-c2[nH]c3cc(F)cc4c3c2CCNC4=O)cc1 + COC1C(OC(N)=O)C(O)C(Oc2ccc3c(O)c(NC(=O)c4ccc(O)c(CC=C(C)C)c4)c(=O)oc3c2C)OC1(C)C
A: 89.9
